details: in isopropanol, 333.15 K
property: solubility (mole fraction)
Output: the number by itself.

Supply measured solubility (mole fraction) of "Oc1ccc([C@@H]2COc3cc(O)ccc3C2)cc1" in your reply.
0.161

###

conditions: in isopentanol, 333.15 K
property: solubility (mole fraction)

Tell me measured solubility (mole fraction) for "Oc1ccc([C@@H]2COc3cc(O)ccc3C2)cc1" please.
0.098

###

settings: in isobutanol, 313.15 K
property: solubility (mole fraction)
Give the value as a plain number.

Supply solubility (mole fraction) value. Item: "Oc1ccc([C@@H]2COc3cc(O)ccc3C2)cc1"
0.047

###

details: in n-heptane, 288.15 K
property: solubility (mole fraction)
// print number alone

Quick one: give measured solubility (mole fraction) for "Oc1ccc([C@@H]2COc3cc(O)ccc3C2)cc1"
0.000624

###

conditions: in isopentanol, 293.15 K
property: solubility (mole fraction)
API doc: respond with a numeric literal and nothing else, no unit.

Report measured solubility (mole fraction); entry is "Oc1ccc([C@@H]2COc3cc(O)ccc3C2)cc1"
0.0394

###

settings: in n-pentanol, 293.15 K
property: solubility (mole fraction)
Please reply with the number alone, leaving off any unit.

Report solubility (mole fraction), nothing else, for this compound: "Oc1ccc([C@@H]2COc3cc(O)ccc3C2)cc1"
0.0419

###

settings: in isobutanol, 273.15 K
property: solubility (mole fraction)
API note: the answer field is a bare number with no unit suffix.

Give solubility (mole fraction) for "Oc1ccc([C@@H]2COc3cc(O)ccc3C2)cc1"
0.0174

###

settings: in isobutanol, 283.15 K
property: solubility (mole fraction)
Enter the number alone.

Tell us which solubility (mole fraction) value is on record for "Oc1ccc([C@@H]2COc3cc(O)ccc3C2)cc1"
0.0229

###

conditions: in n-heptane, 283.15 K
property: solubility (mole fraction)

// Input: "Oc1ccc([C@@H]2COc3cc(O)ccc3C2)cc1" . Output its solubility (mole fraction) only.
0.000554

###

settings: in isopropanol, 273.15 K
property: solubility (mole fraction)
Form: value (number only, do not type unit).

Give the value of solubility (mole fraction) reported for the following: "Oc1ccc([C@@H]2COc3cc(O)ccc3C2)cc1"
0.0295

###

details: in n-pentanol, 273.15 K
property: solubility (mole fraction)
Give the figure only, with no unit attached.

Output measured solubility (mole fraction) for this item: "Oc1ccc([C@@H]2COc3cc(O)ccc3C2)cc1"
0.0235

###

conditions: in isopentanol, 278.15 K
property: solubility (mole fraction)
// keep it numeric: no unit symbol after the value

Find the measured solubility (mole fraction) of "Oc1ccc([C@@H]2COc3cc(O)ccc3C2)cc1" and report it.
0.0261

###

settings: in isobutanol, 318.15 K
property: solubility (mole fraction)
Write the number on its own, no unit after it.

Look up and state reported solubility (mole fraction) for "Oc1ccc([C@@H]2COc3cc(O)ccc3C2)cc1"
0.0523

###

details: in isobutanol, 323.15 K
property: solubility (mole fraction)
Reply with just the number.

Consider the compound "Oc1ccc([C@@H]2COc3cc(O)ccc3C2)cc1" and give its recorded solubility (mole fraction).
0.058

###

details: in n-butanol, 283.15 K
property: solubility (mole fraction)
Give only the figure.

Entry "Oc1ccc([C@@H]2COc3cc(O)ccc3C2)cc1" needs its solubility (mole fraction) filled in; supply it.
0.0331

###

settings: in isopentanol, 288.15 K
property: solubility (mole fraction)

Give recorded solubility (mole fraction). "Oc1ccc([C@@H]2COc3cc(O)ccc3C2)cc1"
0.0345

###

details: in isopropanol, 328.15 K
property: solubility (mole fraction)
In your answer, state the number alone without any accompanying words.

Kindly indicate its recorded solubility (mole fraction). Item: "Oc1ccc([C@@H]2COc3cc(O)ccc3C2)cc1"
0.143

###

conditions: in isopropanol, 308.15 K
property: solubility (mole fraction)
Answer using only a numeral; do not append any unit.

Give the value of solubility (mole fraction) reported for the following: "Oc1ccc([C@@H]2COc3cc(O)ccc3C2)cc1"
0.086

###

conditions: in n-heptane, 273.15 K
property: solubility (mole fraction)
Lab note: write the figure by itself, no unit.

Please indicate solubility (mole fraction) recorded for "Oc1ccc([C@@H]2COc3cc(O)ccc3C2)cc1"
0.000431

###

conditions: in n-butanol, 288.15 K
property: solubility (mole fraction)
// return just the number, without any unit appended

State its solubility (mole fraction) for this compound: "Oc1ccc([C@@H]2COc3cc(O)ccc3C2)cc1"
0.0384

###

conditions: in n-pentanol, 278.15 K
property: solubility (mole fraction)

For the molecule "Oc1ccc([C@@H]2COc3cc(O)ccc3C2)cc1" , give its measured solubility (mole fraction) value.
0.0273

###

conditions: in isopropanol, 283.15 K
property: solubility (mole fraction)
// no unit, no text: just the number

# return recorded solubility (mole fraction) for input "Oc1ccc([C@@H]2COc3cc(O)ccc3C2)cc1"
0.0412

###

conditions: in n-pentanol, 283.15 K
property: solubility (mole fraction)
Write no unit; give the number alone.

Please list solubility (mole fraction) recorded for the molecule "Oc1ccc([C@@H]2COc3cc(O)ccc3C2)cc1"
0.0317

###

conditions: in isopentanol, 318.15 K
property: solubility (mole fraction)
Format: numeric value only, no unit, no commentary.

Determine its reported solubility (mole fraction): "Oc1ccc([C@@H]2COc3cc(O)ccc3C2)cc1"
0.0715

###

conditions: in n-butanol, 293.15 K
property: solubility (mole fraction)
Please state the value as a number alone, without comment.

Respond only with solubility (mole fraction) recorded for "Oc1ccc([C@@H]2COc3cc(O)ccc3C2)cc1"
0.0442

###

details: in n-butanol, 318.15 K
property: solubility (mole fraction)
Give the figure by itself; no unit, no explanation.

Provide measured solubility (mole fraction) value, entry: "Oc1ccc([C@@H]2COc3cc(O)ccc3C2)cc1"
0.0846

###

conditions: in isopentanol, 323.15 K
property: solubility (mole fraction)
When you answer, write just the number.

Read the entry "Oc1ccc([C@@H]2COc3cc(O)ccc3C2)cc1" and write its reported solubility (mole fraction).
0.0797

###

conditions: in isopropanol, 288.15 K
property: solubility (mole fraction)

Annotate the compound "Oc1ccc([C@@H]2COc3cc(O)ccc3C2)cc1" with its measured solubility (mole fraction).
0.0482

###

settings: in isopentanol, 303.15 K
property: solubility (mole fraction)

Consider the compound "Oc1ccc([C@@H]2COc3cc(O)ccc3C2)cc1" and give its recorded solubility (mole fraction).
0.0506

###

settings: in n-butanol, 303.15 K
property: solubility (mole fraction)
Please reply with the value in numeric form only.

For the molecule "Oc1ccc([C@@H]2COc3cc(O)ccc3C2)cc1" , give its measured solubility (mole fraction) value.
0.0581

###

details: in isobutanol, 278.15 K
property: solubility (mole fraction)
Quick one: just the number, no unit, thanks!

For the compound "Oc1ccc([C@@H]2COc3cc(O)ccc3C2)cc1" , give its measured solubility (mole fraction) value.
0.02

###

settings: in n-heptane, 293.15 K
property: solubility (mole fraction)
Answer using only a numeral; do not append any unit.

Look up solubility (mole fraction) of "Oc1ccc([C@@H]2COc3cc(O)ccc3C2)cc1" and report it.
0.000699

###

conditions: in isopropanol, 313.15 K
property: solubility (mole fraction)
Please give only the number in your answer, with no unit.

Consider the compound "Oc1ccc([C@@H]2COc3cc(O)ccc3C2)cc1" . State its measured solubility (mole fraction).
0.0982

###

settings: in isopropanol, 278.15 K
property: solubility (mole fraction)
Give the figure only, with no unit attached.

# return recorded solubility (mole fraction) for entry "Oc1ccc([C@@H]2COc3cc(O)ccc3C2)cc1"
0.035

###

conditions: in isobutanol, 308.15 K
property: solubility (mole fraction)
# answer = number (no unit)

Using known records, supply solubility (mole fraction) for "Oc1ccc([C@@H]2COc3cc(O)ccc3C2)cc1"
0.0421

###

settings: in isopentanol, 328.15 K
property: solubility (mole fraction)
# print the numeric value only

Could you please provide reported solubility (mole fraction) for "Oc1ccc([C@@H]2COc3cc(O)ccc3C2)cc1" ? Thanks!
0.0885

###

conditions: in n-heptane, 323.15 K
property: solubility (mole fraction)
Give your answer as a number; write no unit.

Give the reported solubility (mole fraction) for this compound. "Oc1ccc([C@@H]2COc3cc(O)ccc3C2)cc1"
0.00129

###

settings: in n-heptane, 298.15 K
property: solubility (mole fraction)
Reply with the value as a number alone.

Tell us which solubility (mole fraction) value is on record for "Oc1ccc([C@@H]2COc3cc(O)ccc3C2)cc1"
0.000781

###

conditions: in n-heptane, 303.15 K
property: solubility (mole fraction)
A bare number is all that is needed in reply.

Identify solubility (mole fraction) associated with the molecule "Oc1ccc([C@@H]2COc3cc(O)ccc3C2)cc1"
0.00087

###

conditions: in n-heptane, 308.15 K
property: solubility (mole fraction)
Answer field: number only, no words.

For the molecule "Oc1ccc([C@@H]2COc3cc(O)ccc3C2)cc1" , give its measured solubility (mole fraction) value.
0.000964
